target: Prostaglandin E synthase (Homo sapiens) (UniProt O14684); assay: Inhibition of human recombinant microsomal PGES-1 expressed in freestyle 293-f cells assessed as conversion of PGH2 to PGE2 at 10 uM after 15 mins by enzyme immunoassay; format: cell-based
VALUE TYPE: inhibition (%)

[[record]]
molecule = "O=[N+]([O-])c1cc2c(c([N+](=O)[O-])c1)Nc1ccccc1N=C2c1ccc(Cl)cc1"
assay_value = 26

[[record]]
molecule = "O=[N+]([O-])C(/C=C(\\Cl)[N+](=O)[O-])=C(N1CCCCC1)N1CCCCC1"
assay_value = 15

[[record]]
molecule = "N#CCC(=O)N/N=C(\\c1nc2ccc(Cl)cc2nc1O)C(O)c1ccc(Cl)cc1 (stereo unspecified)"
assay_value = 50

[[record]]
molecule = "CC1(C)C(c2ccc(Cl)cc2)N(O)C2(CCCCC2=O)N1O (stereo unspecified)"
assay_value = 43

[[record]]
molecule = "COCCN(c1ccc(/C=C2\\S/C(=N\\c3ccccc3)N(C(C)C(=O)O)C2=O)cc1)c1ccccc1OC (stereo unspecified)"
assay_value = 83

[[record]]
molecule = "CCOC(=O)Cn1c(=O)c2c(nc3n2CCCN3c2ccc(OCC)cc2)n(C)c1=O"
assay_value = 39

[[record]]
molecule = "O=C(O)CSc1nc2sc3c(c2c(=O)n1Cc1ccccc1)CCCCC3"
assay_value = 20

[[record]]
molecule = "CC1CCc2c(sc3ncnc(SC(C)C(=O)O)c23)C1 (stereo unspecified)"
assay_value = 16

[[record]]
molecule = "Cc1c(C(=O)O)ccc2c1NC(c1ccc(OCC#N)cc1)C1CC=CC21 (stereo unspecified)"
assay_value = 39

[[record]]
molecule = "CCN1C(=O)C2Cc3c([nH]c4ccccc34)C(c3ccc(Cl)cc3)N2C1=O (stereo unspecified)"
assay_value = 10

[[record]]
molecule = "CC(=O)NC(Cc1ccc(C)cc1)C(=O)NC(Cc1ccc(F)cc1)C(=O)N1CCC(OCc2ccccc2)CC1CCCNC(=N)N (stereo unspecified)"
assay_value = 31


---

biological target: Prostaglandin E synthase (Homo sapiens); assay: Inhibition of human recombinant microsomal PGES-1 expressed in freestyle 293-f cells assessed as conversion of PGH2 to PGE2 after 15 mins by enzyme immunoassay; format: cell-based
VALUE TYPE: IC50 (µM)

[[record]]
compound = "COCCN(c1ccc(/C=C2\\S/C(=N\\c3ccccc3)N(C(C)C(=O)O)C2=O)cc1)c1ccccc1OC (stereo unspecified)"
assay_value = 3.5


---

Target: Prostaglandin E synthase (Homo sapiens, UniProt O14684)
Sequence (O14684 whole entry): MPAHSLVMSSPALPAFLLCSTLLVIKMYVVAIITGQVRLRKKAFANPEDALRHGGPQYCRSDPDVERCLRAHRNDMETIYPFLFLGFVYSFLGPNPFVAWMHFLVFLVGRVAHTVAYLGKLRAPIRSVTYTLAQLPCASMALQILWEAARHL
Assay: Inhibition of microsomal PGES
pIC50: −log10 of the molar value.
VALUE TYPE: pIC50

[[record]]
compound = "CC1=C(CC(=O)O)c2cc(F)ccc2/C1=C\\c1ccc([S+](C)[O-])cc1 (configuration not stated)"
experimental_system = "Prostaglandin E synthase (Homo sapiens, UniProt O14684)"
value_type = "pIC50"
assay_value = 4.10

[[record]]
compound = "CS(=O)(=O)Nc1ccc([N+](=O)[O-])cc1OC1CCCCC1 [NS-398]"
experimental_system = "Prostaglandin E synthase (Homo sapiens, UniProt O14684)"
value_type = "pIC50"
assay_value = 4.70


Data origin: ChEMBL document CHEMBL1828529
